Target: T1, SmcR WT (Vibrio vulnificus, UniProt Q9L8G8 1-205)
T1 sequence: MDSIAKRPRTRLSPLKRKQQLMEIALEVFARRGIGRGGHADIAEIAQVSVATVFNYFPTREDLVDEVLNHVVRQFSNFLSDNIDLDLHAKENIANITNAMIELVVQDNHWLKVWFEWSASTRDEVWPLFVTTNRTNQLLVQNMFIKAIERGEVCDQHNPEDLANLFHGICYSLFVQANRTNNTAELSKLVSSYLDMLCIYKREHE
Test: EMSA
Note to self: use Condition met only for Kd readings below 2 nM; a reading exactly at 2 nM still gets Condition not met.

binder="PvvpE (AB324/AB325) (dsDNA) DNA 1: ATAAATCAAATTTGTAACTTTATTTCTGAGATGACTGTCCCATTTATCTTATTGATAAATCTGCGTAAAAAAGAAAAAGCACAATTTTATTACTAGTGTTT DNA 2: AAACACTAGTAATAAAATTGTGCTTTTTCTTTTTTACGCAGATTTATCAATAAGATAAATGGGACAGTCATCTCAGAAATAAAGTTACAAATTTGATTTAT" assigned_class="Condition not met"
binder="PluxC site E A17T (JDN46/JDN47) (dsDNA) DNA 1: TCTAATTATTGTTTGATTTATTTATAATTAGT DNA 2: ACTAATTATAAATAAATCAAACAATAATTAGA" assigned_class="Condition not met"
binder="PvvpM (AB316/AB317) (dsDNA) DNA 1: ACACTTATCTTTAGTGACAAACTCATAAATAGCAAGTTCTCACACGGTC DNA 2: GACCGTGTGAGAACTTGCTATTTATGAGTTTGTCACTAAAGATAAGTGT" assigned_class="Condition met"
binder="PluxC site E T4A (JDN44/JDN45) (dsDNA) DNA 1: TCTAATTATAGTTTGATTTATTAATAATTAGT DNA 2: ACTAATTATTAATAAATCAAACTATAATTAGA" assigned_class="Condition met"
